Target: GPR6 (Homo sapiens, UniProt P46095)
Construct: expressed in transfected cells; host or cells: CHO cells
Sequence (P46095 whole entry): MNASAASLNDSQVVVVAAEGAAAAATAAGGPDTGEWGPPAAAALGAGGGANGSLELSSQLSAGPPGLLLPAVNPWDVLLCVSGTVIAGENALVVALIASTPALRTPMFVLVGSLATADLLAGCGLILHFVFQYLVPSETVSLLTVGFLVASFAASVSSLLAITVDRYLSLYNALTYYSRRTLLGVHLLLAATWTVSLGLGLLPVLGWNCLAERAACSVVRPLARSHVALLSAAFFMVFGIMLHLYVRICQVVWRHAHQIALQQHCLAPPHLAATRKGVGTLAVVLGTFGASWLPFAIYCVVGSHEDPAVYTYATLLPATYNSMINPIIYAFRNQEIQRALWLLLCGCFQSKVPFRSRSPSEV
Test: GPR6 antagonist functional cAMP assay (LANCE Ultra cAMP TR-FRET, CHO cells stably expressing GPR6)
Format: cell-based
Conditions: CHO cells stably expressing GPR6, cAMP assay (Example 24)
pIC50: −log10 of the molar value.
Outcome measure: pIC50

Some entries whose results are on file:
[
  {
    "Compound": "CC(=O)N1CCc2nc(N3CCC(Oc4ccc(F)cc4F)CC3)c(C3=COCCC3)nc2C1",
    "pIC50": "6.00 to 7.00"
  },
  {
    "Compound": "CC(=O)N1CCc2nc(N3CCC(C(=O)N(C)Cc4ccc(F)cc4F)C3)c(-c3cnn(C)c3)nc2C1 (stereo not shown)",
    "pIC50": "4.52 to 6.00"
  },
  {
    "Compound": "COc1cnc(-c2nc3c(nc2N2CCC(Oc4ccc(F)cc4F)CC2)CCN(C(C)=O)C3)nc1",
    "pIC50": "4.52 to 6.00"
  },
  {
    "Compound": "[2H]C([2H])([2H])C([2H])([2H])n1cc(-c2nc3c(nc2N2CCC(Oc4ccc(F)cc4F)CC2)CCN(C(C)=O)C3)cn1",
    "pIC50": "> 7.00"
  },
  {
    "Compound": "CC(C)(C)OC(=O)N1CC(C(=O)N2CCc3nc(N4CCC(Oc5ccc(F)cc5F)CC4)c(-c4cnn(C5CCCCO5)c4)nc3C2)C1 (stereo not shown)",
    "pIC50": "4.52 to 6.00"
  },
  {
    "Compound": "Cn1cc(-c2nc3cnccc3nc2N2CCN(CC3CCOCC3)CC2)cn1",
    "pIC50": "≤ 4.52"
  }
]

Would you kindly look at the next entry?
What does the record list as pIC50 for CC(=O)N1CCc2nc(N3CCC(Oc4ccc(F)cc4F)CC3)c(C3CCOCC3)nc2C1 ?
4.52 to 6.00

###

Biological target: GPR3 (Homo sapiens, UniProt P46089)
Construct: expressed in transfected cells; host or cells: CHO cells
Sequence (P46089 whole entry, species assumed): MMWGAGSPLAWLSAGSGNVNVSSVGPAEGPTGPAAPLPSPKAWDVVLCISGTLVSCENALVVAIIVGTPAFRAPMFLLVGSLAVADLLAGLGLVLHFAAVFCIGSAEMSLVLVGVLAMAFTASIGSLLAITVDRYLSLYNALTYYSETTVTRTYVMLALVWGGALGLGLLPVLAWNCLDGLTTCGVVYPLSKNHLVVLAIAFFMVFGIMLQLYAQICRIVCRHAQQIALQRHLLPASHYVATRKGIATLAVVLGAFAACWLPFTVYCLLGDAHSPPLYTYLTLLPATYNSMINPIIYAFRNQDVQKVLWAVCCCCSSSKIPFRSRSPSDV
Test: GPR3 antagonist functional cAMP assay (LANCE Ultra cAMP TR-FRET, CHO cells stably expressing GPR3)
Format: cell-based
Conditions: CHO cells stably expressing GPR3, cAMP assay
Protocol: Example 56. GPR6 and GPR3 Antagonist Functional cAMP Assay CHO cells stably expressing GPR6 or GPR3 receptors were dissociated from cell culture flasks and incubated for 2 h at 37° C. in a 10 cm dish in a humidified incubator. […] To measure cAMP levels, LANCE® Ultra cAMP assay (Perkin Elmer), a homogeneous time-resolved fluorescence resonance energy transfer (TR-FRET) immunoassay was used following manufacturer's recommendations. […] FRET values were reported as readings obtained at 665 nm. […]
pIC50: −log10 of the molar value.
// values below are reported pIC50

[
  {
    "Compound": "CC(C)(O)C(O)c1cc2nc(-c3cnn(CF)c3)c(N3CCN(Cc4ccc(F)cc4F)CC3)nc2cn1 (single isomer, unassigned) [Compound 603]",
    "Result": "4.52 to 6.00"
  }
]

What does the record list as pIC50 for Cn1cc(-c2nc3ccc(C(O)C(C)(C)O)nc3nc2N2CCN(Cc3ccc(F)cc3F)CC2)cn1 (stereo not shown) ?
≤ 4.52

And then CC(=O)N1CCc2nc(N3CCN(C(CO)(CO)c4ccccc4F)CC3)c(-c3cnn(C)c3)nc2C1 , what is it?
≤ 4.52

And then CC(=O)N1CCc2nc(N3CCN(Cc4cc(F)ccc4F)CC3)c(-c3ccc(F)c(N)n3)nc2C1 , what is it?
4.52 to 6.00
